test system: MDA-MB-361; experiment: MDA-MB-361 proliferation; assay type: cell-based; conditions: Homo sapiens; in vitro IC50, MDA-MB-361 cells
pIC50: −log10 of the molar value.
observable: pIC50

{"compound": "CCOC(=O)N1CC=C(c2cnc3ccc(-c4ccc5oc(N)nc5c4)nc3n2)CC1 [Compound 9]", "experimental_system": "MDA-MB-361", "pIC50": "> 6.00"}

NCC(=O)N1CCN(c2cnc3ccc(-c4ccc5oc(N)nc5c4)nc3n2)CC1 [Compound 33] yielded pIC50 of < 5.00

Documented pIC50 of C[C@H]1CN(c2cnc3ccc(-c4ccc5oc(N)nc5c4)nc3n2)CCN1 [Compound 1] : > 5.00

Value of measured pIC50 for the entry Nc1nc2cc(-c3ccc4ncc(N5CC(N6CCN(CC7CC7)CC6)C5)cc4n3)ccc2o1 [Compound 60] : > 6.00

Lookup result for C[C@@H]1COCCN1C1CN(c2cnc3ccc(-c4ccc5oc(N)nc5c4)nc3c2)C1 [Compound 66] ; measured pIC50: > 5.00

Lab note: CS(=O)(=O)N1CCN(C2CN(c3cnc4ccc(-c5ccc6oc(N)nc6c5)nc4n3)C2)CC1 [Compound 8] gave pIC50 of > 5.00

Sure, the documented pIC50 for Nc1nc2cc(-c3ccc4ncc(N5CC(N6CCN(C7CC7)CC6)C5)cc4n3)ccc2o1 [Compound 70] is > 5.00

pIC50 in this record for Nc1nc2cc(-c3ccc4ncc(N5CCC(F)(F)CC5)nc4n3)ccc2o1 [Compound 13] : > 5.00

The recorded pIC50 for C[C@@H]1CN(C2CN(c3cnc4ccc(-c5ccc6oc(N)nc6c5)nc4n3)C2)CCN1 [Compound 12] is > 5.00

Briefly, pIC50 measured for Nc1nc2cc(-c3ccc4ncc(N5CC(N6C7CCC6COC7)C5)cc4n3)ccc2o1 [Compound 67] : > 5.00

The compound listed as CC1(C)CN(C2CN(c3cnc4ccc(-c5ccc6oc(N)nc6c5)nc4n3)C2)CCN1 [Compound 52] has a reported pIC50 of > 6.00
